Values were extracted from patent US20180177724A1.

system: U937 monocytic cell adhesion to L-NIO-treated ECs; test: Monocyte adhesion assay, L-NIO-treated (NO-deficient) ECs; format: cell-based, human; conditions: Homo sapiens, U-937, read-out: EC50, inhibition of human monocyte adhesion to NO-deficient human microvascular ECs
readout: EC50
Number first, unit second.

Query: EC50; subject: O=[N+]([O-])OCC(CO[N+](=O)[O-])O[N+](=O)[O-] [NTG, Nitroglycerin] 640 nM
